# reported log10 of IC50; entries follow
- Tested on: Trypanosoma brucei rhodesiense (bloodstream trypomastigotes, STIB 900 strain)
- method.summary: In vitro anti-trypanosomal activity against Tbr
- Format: cell-based
- protocol.conditions: Trypanosoma brucei, isolated compounds; average of two determinations ± absolute deviation; read-out: Tbr (STIB900) IC50 (µg/mL)
The common logarithm of IC50 in µg/mL is what is listed.

C[C@H]1[C@H]2CC[C@H]3[C@@H]4C(=O)C=C5C=CCC[C@]5(C)[C@H]4CC[C@]23CN1C	0.38
C[C@H]1[C@H]2CC[C@H]3[C@@H]4CC=C5C[C@@H](N(C)C)CC[C@]5(C)[C@H]4C[C@@H](O)[C@]23CN1C	0.89
C[C@@H]1N=C[C@]23C[C@H](O)[C@H]4[C@@H](CCC5=CC(=O)C=C[C@@]54C)[C@@H]2CC[C@H]13	0.45
CC(=O)[C@H]1CC[C@H]2[C@@H]3CC[C@H]4C[C@H](N)CC[C@]4(C)[C@H]3CC[C@]12C [Compound 6, 3α-dihydroholaphyllamine]	-0.42
CC(=O)[C@H]1CC[C@H]2[C@@H]3CC=C4C[C@@H](N)CC[C@]4(C)[C@H]3CC[C@]12C	-0.90

Attention now shifts to the item below.
Return value of log10 of IC50 for input CC(=O)[C@H]1CC[C@H]2[C@@H]3CC[C@H]4C[C@@H](N)CC[C@]4(C)[C@H]3CC[C@]12C [Compound 5, 3β-dihydroholaphyllamine] , no commentary.
-0.67

Data provenance: paper PMC6152089
